Assay: chemical genetic growth profiling, strain panel (AID 1159580);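 note: tested at 20 µM; growth read once vehicle control cultures reached saturation at 30 °C; 1 = growth at the plate median or of vehicle wells; lower values mean less growth of the strain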
Conditions: S. cerevisiae deletion strains, growth OD, locus YGL240W, strain doc1, active compounds read low
Screen size: about 5,500 compounds; about 2,000 (36%) were called active. Another 18% or so got no clear call; they are omitted. The list shows a part of the results.
Listed below: normalized growth values for each entry.
Quantity name: normalized growth

{"Compound": "Cc1ccc(-c2cc(C(F)(F)F)nn2-c2ccc(S(N)(=O)=O)cc2)cc1", "Observed result": 1.04}
{"Compound": "COc1ccc2c(c1)c(CC(=O)O)c(C)n2C(=O)c1ccc(Cl)cc1", "Observed result": 1.01}
{"Compound": "CNC(=O)O/N=C\\C(C)(C)SC", "Observed result": 0.972}
{"Compound": "O=C1C(O)=C(O)C(=O)C(O)=C1O", "Observed result": 1.02}
{"Compound": "Cc1cn([C@H]2C[C@H](N=[N+]=[N-])[C@@H](CO)O2)c(=O)[nH]c1=O", "Observed result": 1}
{"Compound": "NC(N)=N/N=C/c1c(Cl)cccc1Cl", "Observed result": 0.986}
{"Compound": "Cc1cc(O)cc(C)c1Cl", "Observed result": 0.978}
{"Compound": "Cc1cc(O)cc(=O)o1", "Observed result": 1.03}
{"Compound": "Nc1ccccc1C(=O)CC(N)C(=O)O (centres undefined)", "Observed result": 0.941}
{"Compound": "CO[C@@]12[C@@H]3NC3CN1C1=C(C(=O)C(N)=C(C)C1=O)[C@@H]2COC(N)=O (some centres undefined)", "Observed result": 0.966}
{"Compound": "Cc1ccc(S(=O)(=O)NC(=O)NN2CC3CCCC3C2)cc1 (centres undefined)", "Observed result": 0.969}
{"Compound": "CC1OC(=O)C(C(C)C)NC(=O)C(C(C)C)OC(=O)C(C(C)C)NC(=O)C(C)OC(=O)C(C(C)C)NC(=O)C(C(C)C)OC(=O)C(C(C)C)NC(=O)C(C)OC(=O)C(C(C)C)NC(=O)C(C(C)C)OC(=O)C(C(C)C)NC1=O (centres undefined)", "Observed result": 0.112}
{"Compound": "CC(=O)NC(C(=O)O)C(C)(C)SN=O (centres undefined)", "Observed result": 0.989}
{"Compound": "Clc1ccccc1C(c1ccccc1)(c1ccccc1)n1ccnc1", "Observed result": 0.0729}
{"Compound": "CC(C)(C#N)O[C@@H]1O[C@H](CO)[C@@H](O)[C@H](O)[C@H]1O", "Observed result": 1.01}
{"Compound": "CCC(C)C(=O)O[C@H]1[C@H](O)C2C(CN3CC(C)CCC3[C@@]2(C)O)C2C[C@]34O[C@]5(O)C(OC(=O)C(C)(O)CC)CC[C@@]3(C)C5C(OC(C)=O)[C@@H](OC(C)=O)C4[C@@]21O (some centres undefined)", "Observed result": 1.01}
{"Compound": "COC(=O)C[C@H]1C(C)(C)C(=O)[C@@H]2CC3C4=CC(=O)O[C@@H](c5ccoc5)[C@]4(C)CCC3[C@@]1(C)C2=O (some centres undefined)", "Observed result": 1}
{"Compound": "CCOC(=O)OC(C)OC(=O)C1N2C(=O)C(NC(=O)[C@H](N)c3ccccc3)C2SC1(C)C (some centres undefined)", "Observed result": 0.984}
{"Compound": "Nc1ccc(S(=O)(=O)Nc2cnc3ccccc3n2)cc1", "Observed result": 1.03}

###

Assay: chemical genetic growth profiling, strain panel (AID 1159580);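 note: tested at 20 µM; growth read once vehicle control cultures reached saturation at 30 °C; 1 = growth at the plate median or of vehicle wells; lower values mean less growth of the strain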
Conditions: S. cerevisiae deletion strains, growth OD, locus YNL233W, strain BNI4, active compounds read low
The campaign covered roughly 5,500 compounds. About 2,000 (36%) were called active. Not shown: some 18% with an inconclusive outcome. This is one part of the list.

{"Compound": "COC(=O)C[C@H]1C(C)(C)C2(O)OC34CC2C(=O)[C@]1(C)C3CC[C@]1(C)C4=CC(=O)O[C@H]1c1ccoc1 (stereo not given in full)", "normalized growth": 0.985}
{"Compound": "O=c1oc2cc(O)ccc2s1", "normalized growth": 0.955}
{"Compound": "Cc1cc(O)cc(C)c1Cl", "normalized growth": 0.992}
{"Compound": "CCOC(=O)OC(C)OC(=O)C1N2C(=O)C(NC(=O)[C@H](N)c3ccccc3)C2SC1(C)C (stereo not given in full)", "normalized growth": 0.97}
{"Compound": "Cc1cc(O)cc(O)c1C(=O)O", "normalized growth": 1.04}
{"Compound": "COc1cc(N)c(Cl)cc1C(=O)NC1CCN(Cc2ccccc2)CC1", "normalized growth": 0.99}
{"Compound": "NCCC(=O)N[C@@H](Cc1cnc[nH]1)C(=O)O", "normalized growth": 1.03}
{"Compound": "C[C@@H]1OC(O[C@H]2[C@H](OC(=O)[C@]34CCC(C)(C)CC3C3=CCC5[C@@]6(C)CC[C@H](OC7O[C@@H](C)[C@H](O[C@@H]8OC[C@@H](O)[C@H](O)[C@H]8O)[C@@H](O)[C@H]7O)C(C)(C)C6CC[C@@]5(C)[C@]3(C)CC4O)OC[C@H](O)[C@H]2O)[C@H](O)[C@H](O)[C@H]1O[C@@H]1O[C@H](CO)[C@@H](O)[C@H](O)[C@H]1O (stereo not given in full)", "normalized growth": 0.997}
{"Compound": "Cc1cc(O)cc(=O)o1", "normalized growth": 0.997}
{"Compound": "CNCc1ccccc1", "normalized growth": 1.01}

###

Test: chemical genetic growth profiling, strain panel (AID 1159580);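 note: tested at 20 µM; growth read once vehicle control cultures reached saturation at 30 °C; 1 = growth at the plate median or of vehicle wells; lower values mean less growth of the strain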
Settings: S. cerevisiae deletion strains, growth OD, locus YNL307C, strain MCK1 (second series)
In all, about 5,500 compounds went through this assay and about 2,000 (36%) were called active. Roughly 18% stayed inconclusive and do not appear here. Rule as the data show it: active = normalized growth mostly below about 0.91 (no sharp cut-off); inconclusive = no clear call, values can overlap the other calls; inactive = mostly above about 0.92. Some of the results follow.
Possible outcomes: active, inactive

{"Compound": "O=C(NCCNc1ncc(Cl)cc1C(F)(F)F)C(F)(F)Sc1ccccc1", "Group": "inactive"}
{"Compound": "Cc1nc(-c2cccnc2)nc(NCc2ccccc2)c1Cl", "Group": "inactive"}
{"Compound": "Brc1ccc2[nH]c3c(c2c1)CCC3", "Group": "inactive"}
{"Compound": "CC(C)Cc1ccc(C(C)C(=O)Nc2nn(C)c3ccccc23)cc1 (stereo unspecified)", "Group": "inactive"}
{"Compound": "O=S(=O)(NC(=S)Nc1ccc(Cl)c(Cl)c1)c1ccccc1", "Group": "inactive"}
{"Compound": "Fc1ccc(NC(=S)N2CCCN(Cc3ccc(Cl)cc3Cl)CC2)cc1", "Group": "inactive"}
{"Compound": "O=C(N/N=C\\c1cc(Br)ccc1O)c1ccccc1Oc1ccccc1", "Group": "inactive"}
{"Compound": "OC1CCN(c2cc(C(F)(F)F)nc3cc(Cl)cc(Cl)c23)CC1", "Group": "inactive"}
{"Compound": "COc1ccc2nc3ccccc3c(N)c2c1", "Group": "active"}
{"Compound": "O=C(NCCNc1ncc(C(F)(F)F)cc1Cl)C(F)(F)Sc1ccccc1", "Group": "inactive"}
{"Compound": "S=C(NNC(=S)NC1CC2C=CC1C2)Nc1ccc(Br)c(Cl)c1 (stereo unspecified)", "Group": "inactive"}

###

Test: chemical genetic growth profiling, strain panel (AID 1159580);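 note: tested at 20 µM; growth read once vehicle control cultures reached saturation at 30 °C; 1 = growth at the plate median or of vehicle wells; lower values mean less growth of the strain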
Details: S. cerevisiae deletion strains, growth OD, locus YOR001W, strain rrp6, active compounds read low
Hit rate of the full screen: of about 5,500 compounds, about 2,000 (36%) were called active. Not shown: some 18% with an inconclusive outcome. The list shows a part of the results.

{"Compound": "Nc1ccccc1C(=O)CC(N)C(=O)O (stereo not given)", "normalized growth": "0.972 (inactive)"}
{"Compound": "CC1=NS(=O)(=O)c2cc(Cl)ccc2N1", "normalized growth": "0.958 (inactive)"}
{"Compound": "CC1(C)CCC2(C(=O)O)CCC3(C)C(=CCC4C5(C)CCC(O)C(C)(C)C5C(O)CC43C)C2C1 (stereo not given)", "normalized growth": "0.964 (inactive)"}
{"Compound": "Cc1cc(C(C)(C)C)c(O)c(C(C)(C)C)c1", "normalized growth": "0.916 (inactive)"}
{"Compound": "CCC(C)C(NC)C(=O)O (stereo not given)", "normalized growth": "1.02 (inactive)"}
{"Compound": "C/C=C(/C)C(=O)OC1CCC2(C)C3CCC4C5(O)CC(O)C6(O)C(CN7CC(C)CCC7C6(C)O)C5(O)CC42OC13O (stereo not given)", "normalized growth": "0.937 (inactive)"}
{"Compound": "FC(F)(F)c1ccccc1-n1ccnc1", "normalized growth": "0.949 (inactive)"}
{"Compound": "COC(=O)C[C@H]1C(C)(C)C2(O)OC34CC2C(=O)[C@]1(C)C3CC[C@]1(C)C4=CC(=O)O[C@H]1c1ccoc1 (stereo not given in full)", "normalized growth": "0.953 (inactive)"}
{"Compound": "CC(=O)/C=C\\[C@@H]1[C@@]2(C)CCCC(C)(C)C2CC[C@@]1(C)O (stereo not given in full)", "normalized growth": "0.95 (inactive)"}
{"Compound": "N#CC(O[C@@H]1O[C@H](CO[C@@H]2O[C@H](CO)[C@@H](O)[C@H](O)[C@H]2O)[C@@H](O)[C@H](O)[C@H]1O)c1ccccc1 (stereo not given in full)", "normalized growth": "0.946 (inactive)"}
{"Compound": "C#C[C@]1(O)CCC2C3CCC4=C(CCC(=O)C4)C3CC[C@@]21C (stereo not given in full)", "normalized growth": "0.936 (inactive)"}
{"Compound": "COc1ccc2c(c1)c(CC(=O)O)c(C)n2C(=O)c1ccc(Cl)cc1", "normalized growth": "0.926 (inactive)"}
{"Compound": "C[C@]12CCC(=O)C=C1CCC1C2[C@@H](O)C[C@@]2(C)C1CC[C@]2(O)C(=O)CO (stereo not given in full)", "normalized growth": "1.01 (inactive)"}
{"Compound": "CC(C)(Sc1cc(C(C)(C)C)c(O)c(C(C)(C)C)c1)Sc1cc(C(C)(C)C)c(O)c(C(C)(C)C)c1", "normalized growth": "1.02 (inactive)"}
{"Compound": "Cc1ccc(S(=O)(=O)NC(=O)NN2CC3CCCC3C2)cc1 (stereo not given)", "normalized growth": "0.99 (inactive)"}
{"Compound": "CC1OC(=O)C(C(C)C)NC(=O)C(C(C)C)OC(=O)C(C(C)C)NC(=O)C(C)OC(=O)C(C(C)C)NC(=O)C(C(C)C)OC(=O)C(C(C)C)NC(=O)C(C)OC(=O)C(C(C)C)NC(=O)C(C(C)C)OC(=O)C(C(C)C)NC1=O (stereo not given)", "normalized growth": "0.497 (active)"}
{"Compound": "C#C[C@]1(OC(C)=O)CCC2C3CCC4=CC(=O)CC[C@@H]4C3CC[C@@]21C (stereo not given in full)", "normalized growth": "1.02 (inactive)"}
{"Compound": "CC(CC(=O)C(O)C(C)(C)O)C1C(=O)CC2(C)C3=CCC4C(C)(C)C(OC5OCC(O)C(O)C5O)CCC45CC35C(O)CC12C (stereo not given)", "normalized growth": "1.01 (inactive)"}
{"Compound": "C[C@@H]1C(=O)O[C@H]2[C@H]1CC[C@@]1(C)C=CC(=O)[C@@]3(C)O[C@@]213", "normalized growth": "1.05 (inactive)"}
{"Compound": "COc1cccc2c1C(=O)c1c(O)c3c(c(O)c1C2=O)C[C@@](O)(C(C)=O)C[C@@H]3O[C@H]1C[C@H](N)[C@H](O)[C@H](C)O1", "normalized growth": "0.96 (inactive)"}
{"Compound": "CC1(C)CC[C@]2(C(=O)O)CC[C@]3(C)C(=CCC4[C@@]5(C)CC[C@H](O)[C@@](C)(CO)C5CC[C@]43C)C2C1 (stereo not given in full)", "normalized growth": "1.01 (inactive)"}
{"Compound": "CC1(C)CC[C@@]2(C(=O)O)C(C1)C1=CCC3[C@@]4(C)CC[C@H](O)C(C)(C)C4CC[C@@]3(C)[C@]1(C)C[C@@H]2O (stereo not given in full)", "normalized growth": "1 (inactive)"}
{"Compound": "CC1(C)CC[C@]2(C)CC[C@]3(C)C(=CCC4[C@@]5(C)CC[C@H](O)C(C)(C)C5CC[C@]43C)C2C1 (stereo not given in full)", "normalized growth": "1 (inactive)"}
{"Compound": "CC(C)CCCC1(C)C=Cc2c(O)c3c(c(CCC(C)C)c2O1)OC12C(CC4CC1C(C)(C)OC2(CCC(C)C(=O)O)C4O)C3=O (stereo not given)", "normalized growth": "0.983 (inactive)"}
{"Compound": "COc1ccc2c(c1)c(CC(=O)OCC(=O)O)c(C)n2C(=O)c1ccc(Cl)cc1", "normalized growth": "0.969 (inactive)"}
{"Compound": "COC(=O)C[C@H]1C(C)(C)C(=O)[C@@H]2CC3C4=CC(=O)O[C@@H](c5ccoc5)[C@]4(C)CCC3[C@@]1(C)C2=O (stereo not given in full)", "normalized growth": "0.962 (inactive)"}
{"Compound": "COc1cc(N)c(Cl)cc1C(=O)NC1CCN(Cc2ccccc2)CC1", "normalized growth": "0.996 (inactive)"}
{"Compound": "C[C@@H]1CC[C@H]2[C@@H](C)C(=O)O[C@@H]3O[C@@]4(C)CC[C@@H]1[C@]32OO4", "normalized growth": "0.855 (active)"}
{"Compound": "C#C[C@]1(O)CCC2C3CCC4=CC(=O)CC[C@@H]4C3CC[C@@]21C (stereo not given in full)", "normalized growth": "0.943 (inactive)"}
{"Compound": "O=C1C(O)=C(O)C(=O)C(O)=C1O", "normalized growth": "0.999 (inactive)"}
{"Compound": "C[C@@H]1CC[C@]2(C(=O)O)CC[C@]3(C)C(=CCC4[C@@]5(C)CC[C@H](O)C(C)(C)C5CC[C@]43C)C2[C@H]1C (stereo not given in full)", "normalized growth": "1.01 (inactive)"}
{"Compound": "NC(N)=N/N=C/c1c(Cl)cccc1Cl", "normalized growth": "0.957 (inactive)"}
{"Compound": "COc1c(-c2coc3cc4c(cc3c2=O)CC(O)C(C)(C)O4)ccc2c1C=CC(C)(C)O2 (stereo not given)", "normalized growth": "0.973 (inactive)"}
{"Compound": "CC1(C)CC[C@]2(C(=O)O)CC[C@]3(C)C(=CCC4[C@@]5(C)CC[C@@H](O)C(C)(C)C5CC[C@]43C)C2C1 (stereo not given in full)", "normalized growth": "1.02 (inactive)"}
{"Compound": "O=c1[nH]cc(F)c(=O)[nH]1", "normalized growth": "0.193 (active)"}
